- Test system: HeLa cells
- Procedure Details: Cell cycle analysis (PI staining, flow cytometry), HeLa
- Type: cell-based, human
- Experimental Context: IC50 concentration, 48 h, mean ± SEM, n = 3
Assay Endpoint: cells in G2/M phase (%)
Numbers only; they are read as %.

Example entries begin here.
# Molecule, Assay System, Measure Unit, cells in G2/M phase
measured = [
    ("O=C(Cn1c(=O)n(CC(=O)NNC(=O)c2cc3cc(Cl)cc(Cl)c3oc2=O)c2cc(Cl)c(Cl)cc21)NNC(=O)c1cc2cc(Cl)cc(Cl)c2oc1=O [Compound 12d]", "HeLa cells", "%", 36.4),
    ("O=C(O)Cn1c(=O)n(CC(=O)O)c2cc(Cl)c(Cl)cc21 [Compound 6]", "HeLa cells", "%", 32.9),
    ("O=c1n(Cc2nnc(S)o2)c2cc(Cl)c(Cl)cc2n1Cc1nnc(S)o1 [Compound 7]", "HeLa cells", "%", 38.4),
    ("O=C(Cn1c(=O)n(CC(=O)N/N=C/c2cccs2)c2cc(Cl)c(Cl)cc21)N/N=C/c1cccs1 [Compound 5]", "HeLa cells", "%", 30.0),
]

Could you now look at the following molecule, please?
For the molecule shown here, O=C(Cn1c(=O)n(CC(=O)NNC(=O)c2cc3cc(Cl)ccc3oc2=O)c2cc(Cl)c(Cl)cc21)NNC(=O)c1cc2cc(Cl)ccc2oc1=O [Compound 12b] , give the reported cells in G2/M phase.
35.0

* * *

- System: A549 cells
- Procedure Details: Cell cycle analysis (PI staining, flow cytometry), A549
- Assay type: cell-based, human
- Experimental Context: A549, IC50 concentration, 48 h, mean ± SEM, n = 3
Assay Endpoint: cells in S phase

# Molecule, Recorded Result
data = [
    ("O=c1[nH]c2cc(Cl)c(Cl)cc2[nH]1 [Compound 1]", "22.7 ± 1.5%"),
    ("O=C(Cn1c(=O)n(CC(=O)NNC(=O)c2cc3cc(Br)ccc3oc2=O)c2cc(Cl)c(Cl)cc21)NNC(=O)c1cc2cc(Br)ccc2oc1=O [Compound 12c]", "15.2 ± 1.3%"),
    ("O=C(Cn1c(=O)n(CC(=O)NNC(=O)c2cc3cc(Cl)cc(Cl)c3oc2=O)c2cc(Cl)c(Cl)cc21)NNC(=O)c1cc2cc(Cl)cc(Cl)c2oc1=O [Compound 12d]", "18.9 ± 1.4%"),
]

Consider the molecule shown here: O=C(O)Cn1c(=O)n(CC(=O)O)c2cc(Cl)c(Cl)cc21 [Compound 6] What is its recorded cells in S phase?
20.6 ± 1.5%

* * *

- Test system: HeLa cells
- Procedure Details: MTT cell viability assay, HeLa
- Type: cell-based, human
- Experimental Context: Homo sapiens, HeLa; MTT, 48 h, mean ± SD, n = 3
Cut-off 30 µM on IC50: below means 1 (yes), at or above means 0 (no).

Take a look at these entries with their results.
# Compound, Label Value
data = [
    ("NNC(=O)Cn1c(=O)n(CC(=O)NN)c2cc(Cl)c(Cl)cc21", "0 (no)"),
    ("O=c1n(Cc2nnc(S)o2)c2cc(Cl)c(Cl)cc2n1Cc1nnc(S)o1", "1 (yes)"),
    ("O=C(Cn1c(=O)n(CC(=O)NNC(=O)c2cc3cc(Cl)cc(Cl)c3oc2=O)c2cc(Cl)c(Cl)cc21)NNC(=O)c1cc2cc(Cl)cc(Cl)c2oc1=O [Compound 12d]", "1 (yes)"),
    ("O=C(Cn1c(=O)n(CC(=O)NNC(=O)c2cc3cc(Cl)ccc3oc2=O)c2cc(Cl)c(Cl)cc21)NNC(=O)c1cc2cc(Cl)ccc2oc1=O [Compound 12b]", "1 (yes)"),
]

Does the reported IC50 of the following compound sit strictly below 30 µM? O=C(Cn1c(=O)n(CC(=O)NNC(=O)c2cc3ccccc3oc2=O)c2cc(Cl)c(Cl)cc21)NNC(=O)c1cc2ccccc2oc1=O [Compound 12a]
0 (no)

// same read-out, input: O=C(O)Cn1c(=O)n(CC(=O)O)c2cc(Cl)c(Cl)cc21
0 (no)

* * *

Here, each record is paired with measured log10 IC50 data.
- Test system: A549 cells
- Procedure Details: MTT cell viability assay, A549
- Assay type: cell-based, human
- Experimental Context: Homo sapiens, A549; MTT, 48 h, mean ± SD, n = 3
Hello, just confirming the data are log10 of IC50 with units of µM.

Some molecules with recorded log10 IC50:
# Molecule, log10 IC50
data = [
    ("O=C(Cn1c(=O)n(CC(=O)NNC(=O)c2cc3ccccc3oc2=O)c2cc(Cl)c(Cl)cc21)NNC(=O)c1cc2ccccc2oc1=O [Compound 12a]", 1.34),
    ("O=c1n(Cc2nnc(S)o2)c2cc(Cl)c(Cl)cc2n1Cc1nnc(S)o1", 1.44),
    ("O=C(Cn1c(=O)n(CC(=O)NNC(=O)c2cc3cc(Br)ccc3oc2=O)c2cc(Cl)c(Cl)cc21)NNC(=O)c1cc2cc(Br)ccc2oc1=O [Compound 12c]", 1.01),
    ("COc1cccc2c1C(=O)c1c(O)c3c(c(O)c1C2=O)C[C@@](O)(C(=O)CO)C[C@@H]3O[C@H]1C[C@H](N)[C@H](O)[C@H](C)O1 [Doxorubicin, reference compound]", 0.63),
]

What value of log10 IC50 has been recorded for this entry: COc1cccc2cc(C(=O)NNC(=O)Cn3c(=O)n(CC(=O)NNC(=O)c4cc5cccc(OC)c5oc4=O)c4cc(Cl)c(Cl)cc43)c(=O)oc12 [Compound 12e]
1.72

Here is the next molecule: O=c1n(CN2CCN(c3ccc(Cl)cc3)CC2)c2cc(Cl)c(Cl)cc2n1CN1CCN(c2ccc(Cl)cc2)CC1
0.98

Try the molecule CCN(CC)c1ccc2cc(C(=O)NNC(=O)Cn3c(=O)n(CC(=O)NNC(=O)c4cc5ccc(N(CC)CC)cc5oc4=O)c4cc(Cl)c(Cl)cc43)c(=O)oc2c1 [Compound 12f]
1.37

Another molecule to check: O=c1[nH]c2cc(Cl)c(Cl)cc2[nH]1
1.47

Now the same for CCOC(=O)Cn1c(=O)n(CC(=O)OCC)c2cc(Cl)c(Cl)cc21
1.78

* * *

- Tested on: MCF-7 cells
- Procedure Details: MTT cell viability assay, MCF-7
- Type: cell-based, human
- Experimental Context: Homo sapiens, MCF7; MTT, 48 h, mean ± SD, n = 3
Simple rule here: IC50 less than 60 µM is 1 (yes), otherwise 0 (no).

# Compound, Label Value
rows = [
    ("NNC(=O)Cn1c(=O)n(CC(=O)NN)c2cc(Cl)c(Cl)cc21", "0 (no)"),
    ("O=C(Cn1c(=O)n(CC(=O)N/N=C/c2cccs2)c2cc(Cl)c(Cl)cc21)N/N=C/c1cccs1", "1 (yes)"),
    ("O=C(Cn1c(=O)n(CC(=O)NNC(=O)c2cc3ccccc3oc2=O)c2cc(Cl)c(Cl)cc21)NNC(=O)c1cc2ccccc2oc1=O [Compound 12a]", "1 (yes)"),
    ("O=C(Cn1c(=O)n(CC(=O)NNC(=O)c2cc3cc(Br)ccc3oc2=O)c2cc(Cl)c(Cl)cc21)NNC(=O)c1cc2cc(Br)ccc2oc1=O [Compound 12c]", "1 (yes)"),
    ("COc1cccc2cc(C(=O)NNC(=O)Cn3c(=O)n(CC(=O)NNC(=O)c4cc5cccc(OC)c5oc4=O)c4cc(Cl)c(Cl)cc43)c(=O)oc12 [Compound 12e]", "0 (no)"),
    ("O=C(Cn1c(=O)n(CC(=O)NNC(=O)c2cc3cc(Cl)cc(Cl)c3oc2=O)c2cc(Cl)c(Cl)cc21)NNC(=O)c1cc2cc(Cl)cc(Cl)c2oc1=O [Compound 12d]", "1 (yes)"),
    ("CCOC(=O)Cn1c(=O)n(CC(=O)OCC)c2cc(Cl)c(Cl)cc21", "0 (no)"),
]

Attention now shifts to the item below.
Take the compound COc1cccc2c1C(=O)c1c(O)c3c(c(O)c1C2=O)C[C@@](O)(C(=O)CO)C[C@@H]3O[C@H]1C[C@H](N)[C@H](O)[C@H](C)O1 [Doxorubicin, reference compound] and say whether its IC50 is less than 60 µM.
1 (yes)

* * *

- Tested on: A549 cells
- Procedure Details: Cell cycle analysis (PI staining, flow cytometry), A549
- Assay type: cell-based, human
- Experimental Context: A549, IC50 concentration, 48 h, mean ± SEM, n = 3
- Experimental: Cell cycle distribution was assessed by propidium iodide (PI) staining and flow cytometry. HeLa, MCF-7, and A549 cells were seeded in 6-well plates at a density of 1 × 10^5 cells per well and allowed to attach overnight. […] The stained samples were analyzed using a Muse™ Cell Analyzer (Merck, Millipore, Germany) equipped with a 488 nm excitation laser and a 617 nm emission filter. […]
Assay Endpoint: cells in G2/M phase (%)
Numeric answer only, unit % assumed.

// lookup cells in G2/M phase for O=c1[nH]c2cc(Cl)c(Cl)cc2[nH]1
20.1

Measured values drawn from paper PMC12735921 for this set.
